TARGET_UNDER_TEST: hK2 (Homo sapiens, UniProt P20151)
Construct: made in house
Sequence (P20151 25-261): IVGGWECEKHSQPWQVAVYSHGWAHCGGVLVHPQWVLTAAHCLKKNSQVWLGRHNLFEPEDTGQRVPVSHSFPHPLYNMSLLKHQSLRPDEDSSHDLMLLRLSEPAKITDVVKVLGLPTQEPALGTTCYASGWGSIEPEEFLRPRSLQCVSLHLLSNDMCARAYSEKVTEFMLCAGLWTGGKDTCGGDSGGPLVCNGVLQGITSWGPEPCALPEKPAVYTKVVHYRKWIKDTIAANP
PROTOCOL_DESCRIPTION: Hydrolysis of hK2 substrates by hK2
Assay type: biochemical
CONDITION_SUMMARY: Table 5; hK2 1 μg/ml, 50 mM Tris, 0.1 M NaCl, pH 7.8
Measured hK2 Hydrolysis Rate by item
Please respond with the number in FU/hr/m and leave the unit unwritten.

A selection of reference data follows.
SEQ ID NO: 96: hK2 substrate peptide, single letter sequence P6-P′1 (GGQKRRL; listed as Homo sapiens); 3267.4
SEQ ID NO: 103: hK2 substrate peptide, single letter sequence P7-P′1 (GAEQKRRL; listed as Homo sapiens); 2325.8
SEQ ID NO: 102: hK2 substrate peptide, single letter sequence P6-P′1 (GGKAFRL; listed as Homo sapiens); 2374.2
SEQ ID NO: 114: hK2 substrate peptide, single letter sequence P6-P′1 (GGKAHRL; listed as Homo sapiens); 1287.4

Task item: Provide measured hK2 Hydrolysis Rate value, entry: SEQ ID NO: 115: hK2 substrate peptide, single letter sequence P6-P′1 (GGKANRL; listed as Homo sapiens)
Reply: 1113.9

Task item: Recall and state the measured hK2 Hydrolysis Rate for SEQ ID NO: 100: hK2 substrate peptide, single letter sequence P6-P′1 (GGKKRRL; listed as Homo sapiens) .
Reply: 2583.0
